molecular target: UniProt P11712; test: CYP inhibition with probe substrate; assay type: in vitro ADME; conditions: coincubation, probe substrate diclofenac; read-out: Co- IC50
Sequence (P11712 whole entry): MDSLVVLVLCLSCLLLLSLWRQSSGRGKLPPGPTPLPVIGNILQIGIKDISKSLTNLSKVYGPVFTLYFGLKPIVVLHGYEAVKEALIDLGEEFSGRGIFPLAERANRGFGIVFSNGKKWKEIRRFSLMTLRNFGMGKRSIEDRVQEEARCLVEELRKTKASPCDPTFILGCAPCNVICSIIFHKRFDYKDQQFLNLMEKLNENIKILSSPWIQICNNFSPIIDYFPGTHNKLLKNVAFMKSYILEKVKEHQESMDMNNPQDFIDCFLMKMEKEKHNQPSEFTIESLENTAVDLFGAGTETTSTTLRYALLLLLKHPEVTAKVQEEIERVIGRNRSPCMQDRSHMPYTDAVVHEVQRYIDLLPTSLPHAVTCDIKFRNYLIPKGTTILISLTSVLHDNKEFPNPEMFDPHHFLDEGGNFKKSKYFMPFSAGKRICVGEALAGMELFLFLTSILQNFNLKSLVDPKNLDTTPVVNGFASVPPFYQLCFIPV
In this section we review reported IC50 values for a set of compounds.

CC1CS(=O)(=O)CCN1n1cc(SCC(N)C(=O)O)ccc1=O (stereo not drawn)	> 20 µM
CC1CS(=O)(=O)CCN1/N=C/c1ccc([N+](=O)[O-])o1 (stereo not drawn) [Nifurtimox, reference compound]	> 50 µM

Moving on to another compound below.
Item: CC1CS(=O)(=O)CCN1N (stereo not drawn) | IC50: > 100 µM

----------
molecular target: UniProtKB P05177; assay: CYP inhibition with probe substrate; assay type: in vitro ADME; conditions: 30-min preincubation, probe substrate phenacetin; read-out: Pre- IC50 (+ NADPH)
Sequence (P05177 whole entry): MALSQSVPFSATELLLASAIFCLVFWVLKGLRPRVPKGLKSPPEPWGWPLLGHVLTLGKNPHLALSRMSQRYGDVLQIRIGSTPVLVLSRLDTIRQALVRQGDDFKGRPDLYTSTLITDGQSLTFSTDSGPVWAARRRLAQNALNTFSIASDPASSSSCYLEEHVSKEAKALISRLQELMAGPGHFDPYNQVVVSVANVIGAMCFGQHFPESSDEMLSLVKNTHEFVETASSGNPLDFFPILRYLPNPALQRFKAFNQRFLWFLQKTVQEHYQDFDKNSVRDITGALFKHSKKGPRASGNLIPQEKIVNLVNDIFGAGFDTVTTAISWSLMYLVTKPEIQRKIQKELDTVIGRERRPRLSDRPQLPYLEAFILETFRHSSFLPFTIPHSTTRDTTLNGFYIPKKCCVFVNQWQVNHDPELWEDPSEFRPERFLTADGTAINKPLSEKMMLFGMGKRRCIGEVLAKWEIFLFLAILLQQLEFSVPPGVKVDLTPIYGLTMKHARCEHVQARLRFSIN
pIC50: −log10 of the molar value.
Attribute Measured: pIC50

Past entries and their recorded results:
CC1CS(=O)(=O)CCN1n1cc(SCC(N)C(=O)O)ccc1=O (stereo not drawn)	< 4.70
CC1CS(=O)(=O)CCN1N (stereo not drawn)	< 4.00

Entry CC1CS(=O)(=O)CCN1/N=C/c1ccc([N+](=O)[O-])o1 (stereo not drawn) [Nifurtimox, reference compound] ; pIC50 = < 4.30

----------
Target: CYP 2C8 (Homo sapiens, UniProt P10632)
Sequence (P10632 1-490): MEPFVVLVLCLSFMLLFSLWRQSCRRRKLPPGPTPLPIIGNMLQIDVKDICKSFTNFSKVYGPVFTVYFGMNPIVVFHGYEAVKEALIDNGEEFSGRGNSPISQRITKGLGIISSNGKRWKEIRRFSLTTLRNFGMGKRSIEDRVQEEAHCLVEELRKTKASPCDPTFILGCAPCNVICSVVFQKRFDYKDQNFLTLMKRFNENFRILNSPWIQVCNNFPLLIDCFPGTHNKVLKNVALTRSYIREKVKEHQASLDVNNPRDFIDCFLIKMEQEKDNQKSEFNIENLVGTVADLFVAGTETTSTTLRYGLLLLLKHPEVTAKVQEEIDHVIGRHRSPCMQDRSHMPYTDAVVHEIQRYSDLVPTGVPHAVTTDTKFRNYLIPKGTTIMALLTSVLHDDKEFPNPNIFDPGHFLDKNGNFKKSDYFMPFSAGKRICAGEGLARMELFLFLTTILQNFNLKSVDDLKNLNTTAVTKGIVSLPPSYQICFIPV
Assay: CYP inhibition with probe substrate
Format: in vitro ADME
Conditions: coincubation, probe substrate amodiaquine; read-out: Co- IC50
Attribute Measured: IC50

CC1CS(=O)(=O)CCN1n1cc(SCC(N)C(=O)O)ccc1=O (stereo not drawn) [M-4]	> 20 µM
CC1CS(=O)(=O)CCN1N (stereo not drawn) [M-6]	> 100 µM

Now take the following compound into account.
Please fill in: IC50 reported for CC1CS(=O)(=O)CCN1/N=C/c1ccc([N+](=O)[O-])o1 (stereo not drawn) [Nifurtimox, reference compound] = > 50 µM

----------
assay: Quantification of nifurtimox and metabolites in rat plasma after a single high dose (200 mg/kg); type: in vivo, Wistar rats; conditions: male, Wistar, rat, plasma, po, 200 mg/kg; read-out: t½, male animals (converted)
Decide by half-life: equal to or exceeding 20 h means yes, less means no.

Example entries begin here.
CC1CS(=O)(=O)CCN1/N=C/C(CCC(=O)O)=N\O (stereo not shown)	yes
CC1CS(=O)(=O)CCN1/N=C/C(=O)CCC(=O)O (stereo not shown)	yes
CC1CS(=O)(=O)CCN1n1cc(SCC(N)C(=O)O)ccc1=O (stereo not shown)	no
CC1CS(=O)(=O)CCN1/N=C/C(=O)CCC#N (stereo not shown)	no

**Q:** Is half-life at least 20 h? Consider CC1CS(=O)(=O)CCN1/N=C/c1ccc([N+](=O)[O-])o1 (stereo not shown) [Nifurtimox, reference compound]
**A:** no

**Q:** Would you say CC1CS(=O)(=O)CCN1N (stereo not shown) shows half-life at minimum 20 h?
**A:** no

**Q:** Decide: is the reported value of half-life for CC(=O)NC(CSc1ccc(=O)n(N2CCS(=O)(=O)CC2C)c1)C(=O)O (stereo not shown) equal to or greater than 20 h?
**A:** no

Each recorded value in this set is attributed to paper PMC10661964.
